The values you see were collected from patent US20230096766A1.

- test: in vitro
- conditionLabel: human, Caco-2, Caco-2 (cm/sec)
*1 amine or outer side, *2 acyl side, *3 side chain or, on linkers, in order; H or OH if unused. Where a SMILES comes first, the peptide text is derived from it. Bridges are numbered along the chain shown (N, C = ends). [ ]: non-standard residue; d: D form. The star is where a group is joined. NMeHph(3-OMe-4-CONHMe) = CNC(=O)c1ccc(CC[C@H](NC)C(=O)O)cc1OC; Phe(3-OMe,4-CONHMe) = CNC(=O)c1ccc(C[C@H](N)C(=O)O)cc1OC; NMePhe(3-Cl) = CN[C@@H](Cc1cccc(Cl)c1)C(=O)O; Propyl(2,2-Me2,3-OH) = CC(C)(CO)C*; hhPhe = N[C@@H](CCCc1ccccc1)C(=O)O; NMeF = CN[C@@H](Cc1ccccc1)C(=O)O; NMeGABA = CN(CCCC(=O)[*:2])[*:1]; NMeL = CN[C@@H](CC(C)C)C(=O)O; NMeV = CN[C@H](C(=O)O)C(C)C; NMeA = CN[C@@H](C)C(=O)O; Piperidide = C1CCN(*)CC1; NBuGly = CCCCNCC(=O)O; Sar = CNCC(=O)O; tBu = CC(C)(C)*
measuredAttribute: Papp (×10⁻⁶ cm/s)
Respond numerically; units are ×10⁻⁶ cm/s and should not be typed.

input: Identify measured Papp corresponding to CC(C)C[C@@H]1NC(=O)[C@H](Cc2ccccc2)N(C)C(=O)[C@@H](C(C)C)NC(=O)C[C@@H](C(=O)N2CCCCC2)NC(=O)[C@H](CC(C)C)N(C)C(=O)[C@H](Cc2ccccc2)N(C)C(=O)[C@H](COCC(C)(C)CO)NC(=O)[C@H](CC(C)C)N(C)C(=O)CN(C)C(=O)[C@H]([C@@H](C)O)NC(=O)[C@H](CC(C)C)N(C)C1=O [AP118] ([dV][NMeF]L[NMeL]T[Sar][NMeL]S(Propyl(2,2-Me2,3-OH))[NMeF][NMeL]D-Piperidide; lactam N-11)
output: 1.8

input: Look up and state reported Papp for CC[C@H](C)[C@@H]1NC(=O)[C@H](CC(C)C)N(C)C(=O)CCCN(C)C(=O)C[C@@H](C(=O)N2CCCCC2)NC(=O)[C@H](CC(C)C)N(C)C(=O)[C@H](CC(C)C)N(C)C(=O)[C@H]([C@@H](C)O)NC(=O)[C@H](CC(C)C)N(C)C(=O)[C@H](COC(C)(C)C)NC(=O)[C@H](Cc2ccccc2)N(C)C(=O)[C@H](CCc2ccc(C(=O)NC)c(OC)c2)N(C)C1=O [AP227] ([NMeGABA][NMeL]I[NMeHph(3-OMe-4-CONHMe)][NMeF]S(tBu)[NMeL]T[NMeL][NMeL]D-Piperidide; lactam N-11)
output: 0.48

input: Specify measured Papp for CC(C)C[C@H]1C(=O)N[C@@H](Cc2ccc(O)cc2)C(=O)N(C)CC(=O)N(C)[C@@H](C)C(=O)N(C)[C@@H](CC(C)C)C(=O)N[C@@H](COC(C)(C)C)C(=O)N(C)[C@@H](C(C)C)C(=O)N[C@H](C(=O)N2CCCCC2)CC(=O)N(C)CC(=O)N(C)[C@@H](Cc2ccccc2)C(=O)N[C@@H](C(C)C)C(=O)N1C [pd115] ([Sar][NMeF]V[NMeL]Y[Sar][NMeA][NMeL]S(tBu)[NMeV]D-Piperidide; lactam N-11) .
output: 0.22

input: Return Papp for the following compound: CCCCN1CC(=O)N(C)[C@@H](CC(C)C)C(=O)N(C)[C@@H](CC(C)C)C(=O)N[C@@H](COC(C)(C)C)C(=O)N(C)[C@@H](CC(C)C)C(=O)N[C@H](C(=O)N2CCCCC2)CC(=O)N(C)CC(=O)N(C)[C@@H](Cc2cccc(Cl)c2)C(=O)N[C@@H](Cc2ccc(C(=O)NC)c(OC)c2)C(=O)N(C)[C@@H](CC(C)C)C(=O)N[C@@H]([C@@H](C)O)C1=O [AP33] ([Sar][NMePhe(3-Cl)][Phe(3-OMe,4-CONHMe)][NMeL]T[NBuGly][NMeL][NMeL]S(tBu)[NMeL]D-Piperidide; lactam N-11)
output: 0.61

input: Fill in Papp for record CC(C)C[C@H]1C(=O)N[C@@H](COC(C)(C)C)C(=O)N(C)[C@@H](Cc2ccccc2)C(=O)N(C)[C@@H](C)C(=O)N[C@H](C(=O)N2CCCCC2)CC(=O)N[C@H](C(C)C)C(=O)N(C)[C@@H](Cc2ccccc2)C(=O)N[C@@H](CCCc2ccccc2)C(=O)N(C)[C@@H](CC(C)C)C(=O)N[C@@H]([C@@H](C)O)C(=O)N(C)CC(=O)N1C [pd192] ([dV][NMeF][hhPhe][NMeL]T[Sar][NMeL]S(tBu)[NMeF][NMeA]D-Piperidide; lactam N-11)
output: 1.1
